The following compounds are shown together with reported melting point values.

Compound | Measured metric | Result
CC(C)(C)OC(=O)N1CC2CCCCC(C1)C2C=O (stereo not given) | melting point | 55 to 60 °C
CC(Sc1nc2ccc(N)cc2s1)C(=O)NCCN(C)Cc1ccc(Cl)c(Cl)c1 (stereo not given) | melting point | 97 to 100 °C
O=C1NCCc2ccc(OCCCN3CCN(c4cccc(Cl)c4Cl)CC3)cc21 | melting point | 162 to 164 °C

// next item, melting point requested
Q: Recorded melting point of CCCCCCCCCCCc1cc2ccc(C(=O)OCC(O)CO)cc2[nH]1 (racemic) , please.
Result: 110 to 112 °C
